- tested_target: Complement C3 (Homo sapiens, UniProt P01024)
- Sequence (P01024 23-667 limits assumed): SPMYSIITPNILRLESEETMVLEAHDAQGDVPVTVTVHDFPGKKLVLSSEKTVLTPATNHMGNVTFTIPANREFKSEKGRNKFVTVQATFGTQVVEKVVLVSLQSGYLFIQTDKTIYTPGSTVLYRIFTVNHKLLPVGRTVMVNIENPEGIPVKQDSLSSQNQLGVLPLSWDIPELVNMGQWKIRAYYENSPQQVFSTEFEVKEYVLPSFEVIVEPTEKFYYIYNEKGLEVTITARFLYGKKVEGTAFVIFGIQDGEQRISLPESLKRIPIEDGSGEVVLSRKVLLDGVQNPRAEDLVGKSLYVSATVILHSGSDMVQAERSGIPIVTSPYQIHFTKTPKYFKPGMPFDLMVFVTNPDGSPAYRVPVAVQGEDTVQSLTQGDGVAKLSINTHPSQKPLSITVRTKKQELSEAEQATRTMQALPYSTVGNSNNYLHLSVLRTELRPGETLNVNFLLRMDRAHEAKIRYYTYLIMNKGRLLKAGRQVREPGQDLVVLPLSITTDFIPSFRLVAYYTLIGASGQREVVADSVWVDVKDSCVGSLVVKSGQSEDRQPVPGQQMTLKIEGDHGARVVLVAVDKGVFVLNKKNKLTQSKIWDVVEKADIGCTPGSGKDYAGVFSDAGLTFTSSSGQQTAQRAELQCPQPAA
- Sequence (P01024 672-1663 limits assumed): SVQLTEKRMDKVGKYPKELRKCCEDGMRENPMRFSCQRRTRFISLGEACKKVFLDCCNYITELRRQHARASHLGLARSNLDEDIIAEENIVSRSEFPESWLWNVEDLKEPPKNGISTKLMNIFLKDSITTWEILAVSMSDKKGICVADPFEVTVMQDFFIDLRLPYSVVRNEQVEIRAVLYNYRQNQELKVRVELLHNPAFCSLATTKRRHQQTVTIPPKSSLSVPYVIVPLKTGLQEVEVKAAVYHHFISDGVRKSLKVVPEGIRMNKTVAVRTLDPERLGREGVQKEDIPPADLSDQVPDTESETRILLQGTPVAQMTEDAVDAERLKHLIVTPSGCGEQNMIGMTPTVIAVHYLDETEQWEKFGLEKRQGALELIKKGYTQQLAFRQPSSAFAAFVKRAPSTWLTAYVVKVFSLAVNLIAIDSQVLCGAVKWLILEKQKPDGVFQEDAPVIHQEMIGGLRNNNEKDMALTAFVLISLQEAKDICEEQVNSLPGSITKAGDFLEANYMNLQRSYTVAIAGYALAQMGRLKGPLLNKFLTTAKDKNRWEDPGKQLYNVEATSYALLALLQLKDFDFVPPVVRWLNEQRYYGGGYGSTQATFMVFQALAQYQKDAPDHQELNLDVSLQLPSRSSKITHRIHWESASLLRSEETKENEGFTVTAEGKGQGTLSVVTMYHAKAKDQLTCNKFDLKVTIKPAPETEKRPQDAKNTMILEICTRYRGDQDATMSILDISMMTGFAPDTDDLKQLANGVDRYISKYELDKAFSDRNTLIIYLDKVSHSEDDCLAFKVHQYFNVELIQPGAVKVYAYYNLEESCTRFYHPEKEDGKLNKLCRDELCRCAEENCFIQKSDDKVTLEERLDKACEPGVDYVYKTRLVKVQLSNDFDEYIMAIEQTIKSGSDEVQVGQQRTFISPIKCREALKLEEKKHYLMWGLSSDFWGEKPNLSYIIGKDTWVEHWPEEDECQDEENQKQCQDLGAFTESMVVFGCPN
This section presents compounds with their documented IC50 values.
# value in µM; strip the unit string

Illustrative cases are given below, each with its answer.
CC[C@H](C)[C@H](NC(C)=O)C(=O)N[C@H]1CSSC[C@@H](C(=O)N[C@H](C(N)=O)[C@@H](C)O)NC(=O)[C@H](CCCNC(=N)N)NC(=O)[C@H](Cc2cnc[nH]2)NC(=O)[C@H](Cc2c[nH]c3ccccc23)NC(=O)CNC(=O)[C@H](Cc2c[nH]c3ccccc23)NC(=O)[C@H](CC(=O)O)NC(=O)[C@H](CCC(N)=O)NC(=O)[C@H](Cc2c[nH]c3ccccc23)NC(=O)[C@H](C(C)C)NC1=O	3.1
CC[C@H](C)[C@H](NC(C)=O)C(=O)N[C@H]1CSSC[C@@H](C(=O)N[C@H](C(=O)O)[C@@H](C)O)NC(=O)[C@H](CCCN=C(N)N)NC(=O)[C@H](Cc2c[nH]cn2)NC(=O)[C@H](C)NC(=O)CNC(=O)[C@H](Cc2c[nH]c3ccccc23)NC(=O)[C@H](CC(=O)O)NC(=O)[C@H](CCC(N)=O)NC(=O)[C@H](CC2CCCCC2)NC(=O)[C@H](C(C)C)NC1=O	47.8
CC[C@H](C)[C@H](NC(C)=O)C(=O)N[C@H]1CSSC[C@@H](C(=O)N[C@H](C(N)=O)[C@@H](C)O)NC(=O)[C@H](CCCNC(=N)N)NC(=O)[C@H](Cc2c[nH]cn2)NC(=O)[C@H](Cc2c[nH]cn2)NC(=O)CNC(=O)[C@H](Cc2c[nH]c3ccccc23)NC(=O)[C@H](CC(=O)O)NC(=O)[C@H](CCC(N)=O)NC(=O)[C@H](C(C)C)NC(=O)[C@H](C(C)C)NC1=O	32

Request: // map CC[C@H](C)[C@H](NC(C)=O)C(=O)N[C@H]1CSSC[C@@H](C(=O)N[C@H](C(=O)O)[C@@H](C)O)NC(=O)[C@H](CCCN=C(N)N)NC(=O)[C@H](Cc2c[nH]cn2)NC(=O)[C@H](C)NC(=O)CNC(=O)[C@H](Cc2c[nH]c3ccccc23)NC(=O)[C@H](CC(=O)O)NC(=O)[C@H](CCC(N)=O)NC(=O)[C@H](Cc2csc3ccccc23)NC(=O)[C@H](C(C)C)NC1=O to recorded IC50 (system: Complement C3 (Homo sapiens, UniProt P01024))
Response: 0.8

Request: // map CC[C@H](C)[C@H](NC(C)=O)C(=O)N[C@H]1CSSC[C@@H](C(=O)N[C@H](C(N)=O)[C@@H](C)O)NC(=O)[C@H](CCCNC(=N)N)NC(=O)[C@H](Cc2cnc[nH]2)NC(=O)[C@H](Cc2cnc[nH]2)NC(=O)CNC(=O)[C@H](Cc2c[nH]c3ccccc23)NC(=O)[C@H](CC(=O)O)NC(=O)[C@H](CCC(N)=O)NC(=O)[C@H]([C@@H](C)O)NC(=O)[C@H](C(C)C)NC1=O to recorded IC50 (system: Complement C3 (Homo sapiens, UniProt P01024))
Response: 68.3

Request: // map CC[C@H](C)[C@H](NC(C)=O)C(=O)N[C@H]1CSSC[C@@H](C(=O)N[C@H](C(=O)O)[C@@H](C)O)NC(=O)[C@H](CCCN=C(N)N)NC(=O)[C@H](Cc2c[nH]cn2)NC(=O)[C@H](C)NC(=O)CNC(=O)[C@H](Cc2c[nH]c3ccccc23)NC(=O)[C@H](CC(=O)O)NC(=O)[C@H](CCC(N)=O)NC(=O)[C@H](Cc2cccc3ccccc23)NC(=O)[C@H](C(C)C)NC1=O to recorded IC50 (system: Complement C3 (Homo sapiens, UniProt P01024))
Response: 1.8

# credit: ChEMBL document CHEMBL1139489
